Where do the numbers come from? From patent US11434205B2.

System: rats
Test: Pharmacological characteristics at equivalent doses (2×ED50) in rats
Conditions: 2×ED50, tail vein, DMSO solution (DMSO alone 10/10)
Procedure: Comparison of Pharmacological Characteristics of the Compounds at Equivalent Doses (2×ED50) in Rats Adult male Sprague-Dawley rats (250-300 g) were selected for the experiment (n=8). […] The drugs were administered at a dose twice their ED50 through the tail vein of rats in a volume of 0.6 mL and at a rate of 0.1 mL/s. In addition, the time of LORR was recorded as the onset time of anesthesia. […]
QUANTITY NAME: Adverse reactions: Red urine (incidence)

> print(dat)
                                    compound  experimental.value
 1  C=C=CC(C)OC(=O)c1cncn1[C@H](C)c1ccccc1 (some centres unmarked)         urine (8/8)
 2  CC(=O)C(C)(C)OC(=O)c1c(F)ncn1[C@H](C)c1ccccc1         urine (8/8)
 3  CC(=O)C1(OC(=O)c2cncn2[C@H](C)c2ccccc2)COC1         urine (8/8)
 4  COCC1(COC(=O)c2c(F)ncn2[C@H](C)c2ccccc2)CCC1 [Compound E2]               (8/8)
 5  C=C=CC(CC)OC(=O)c1c(F)ncn1[C@H](C)c1ccccc1 (some centres unmarked)         urine (8/8)
 6    C[C@H](c1ccccc1)n1cnc(F)c1C(=O)OC1CCC1               (8/8)
 7      C[C@H](c1ccccc1)n1cncc1C(=O)OCC1CCC1     Red urine (8/8)
 8  C=CC#CC(C)OC(=O)c1cncn1[C@H](C)c1ccccc1 (some centres unmarked)     Red urine (8/8)
 9  C=C=CC1(OC(=O)c2cncn2[C@H](C)c2ccccc2)CCC1     Red urine (8/8)
10  CC#CC1(OC(=O)c2c(F)ncn2[C@H](C)c2ccccc2)CSC1               (8/8)
11  C[C@H](c1ccccc1)n1c(Cl)nc(Cl)c1C(=O)OC1COC1         urine (8/8)
12  [2H]C#CC(C)(C)OC(=O)c1cncn1[C@H](C)c1ccccc1     Red urine (8/8)
13     C[C@H](c1ccccc1)n1cncc1C(=O)OCCC1CCC1     Red urine (8/8)
14  CCCCC(CCCC)OC(=O)c1cncn1[C@H](C)c1ccccc1               (8/8)
15  C[C@H](c1ccccc1)n1cnc(F)c1C(=O)OC1(C)CCC1               (8/8)
16       C[C@H](c1ccccc1)n1cncc1C(=O)OC1CCC1     Red urine (8/8)
17   C[C@H](c1ccccc1)n1cncc1C(=O)OCC1(C)CSC1     Red urine (8/8)
18  CC#CC1(OC(=O)c2cncn2[C@H](C)c2ccccc2)CCSC1 (some centres unmarked)         urine (8/8)
19  C=CC#CC(C)(C)OC(=O)c1cncn1[C@H](C)c1ccccc1     Red urine (8/8)
20  C=C=CC(C)(C)OC(=O)c1c(F)ncn1[C@H](C)c1ccccc1         urine (8/8)
21     C[C@H](c1ccccc1)n1cncc1C(=O)OC(C)(C)C               (8/8)
22     CC(C)OC(=O)c1c(F)ncn1[C@H](C)c1ccccc1               (8/8)
23  C#CC(C)(C)OC(=O)c1c(F)ncn1[C@H](C)c1ccccc1         urine (8/8)
24    C[C@H](c1ccccc1)n1cnc(F)c1C(=O)OCC1CC1               (8/8)
25  C[C@H](c1ccccc1)n1cncc1C(=O)OC1(C)CCC1=O (some centres unmarked)     Red urine (8/8)
26  CCC(C)(CC)OC(=O)c1c(F)ncn1[C@H](C)c1ccccc1               (8/8)
27  C=C=CC1(OC(=O)c2cncn2[C@H](C)c2ccccc2)CSC1     Red urine (8/8)
28  CC#CC1(OC(=O)c2c(F)ncn2[C@H](C)c2ccccc2)COC1         urine (8/8)
29      CCC(CC)OC(=O)c1cncn1[C@H](C)c1ccccc1         urine (8/8)
30   CCC(CC)OC(=O)c1c(F)ncn1[C@H](C)c1ccccc1         urine (8/8)
31   C[C@H](c1ccccc1)n1cncc1C(=O)OCC1(C)COC1     Red urine (8/8)
32  C=CCC1(OC(=O)c2cncn2[C@H](C)c2ccccc2)CCC1     Red urine (8/8)
33  C[C@H](c1ccccc1)n1cncc1C(=O)OCC1(C(F)F)CCC1     Red urine (8/8)
34  CCC1(COC(=O)c2cncn2[C@H](C)c2ccccc2)COC1                 8/8
35  C=C=CC(C)OC(=O)c1c(F)ncn1[C@H](C)c1ccccc1 (some centres unmarked)               (8/8)
36  C=C=CC1(OC(=O)c2cncn2[C@H](C)c2ccccc2)CCOCC1     Red urine (8/8)
37  C=C=CC1(OC(=O)c2c(F)ncn2[C@H](C)c2ccccc2)COC1               (8/8)
38  C=C(C)CC1(OC(=O)c2cncn2[C@H](C)c2ccccc2)CCC1         urine (8/8)
